# Test system: SW-620
# protocol: NCI tumour cell line growth inhibition, 48 h
The source made the active and inactive calls. Rule as the data show it: active = GI50 up to about 1.1 µM and inactive = higher.
For each entry below, report its GI50 value.

Use the examples below as a reference point.
COC(=O)C1=Cc2c(cc(OC)c(OC)c2OC)[C@H](c2ccc(OC)c(OC)c2OC)C1C(=O)OC (stereo not given in full)
> 100 µM (inactive)
Cc1ccc(/C=C/C(=O)c2sc(C(N)=S)nc2C)cc1
> 100 µM (inactive)
C#CCNC(=O)NCCCCC(NC(=O)OCc1ccccc1)C(=O)OCc1ccccc1 (stereo not given)
72.8 µM (inactive)
COC(=O)C1(NC(=O)C(Cc2ccccc2)N(C(=O)OC(C)(C)C)C(=O)OC(C)(C)C)CCCC1 (stereo not given)
> 100 µM (inactive)

# ---- query compound ----
Record summary for COc1ccc(N2C(=O)CC(=O)N(C(=O)COc3ccc(OCC(=O)N4C(=O)CC(=O)N(c5ccc(OC)cc5)C4=S)cc3)C2=S)cc1 : reported GI50 = 40.1 µM (inactive)
